# methodDescription: in vivo
# conditionsUsed: male, Balb/C, mouse, po, 1 mg/kg
For each record, write down the corresponding AUC(0-t).
Numeric only. Scale: µg·h/mL

Ask | Field request: AUC(0-t) | item: CCc1cc2ncc(CN3CC=C(c4ccc(C(=O)NC)nc4C#N)CC3)cc2[nH]c1=O [Example 35]
Reply | 43.2

Ask | What do you have for CNC(=O)c1ccc(C2=CCN(Cc3cnc4cc(C5CC5)c(=O)[nH]c4c3)CC2)cn1 [Example 45] ?
Reply | 221

----------
# methodDescription: PK part of PK/PD study in MDA-MB-436 subcutaneous xenograft model: plasma and tumor concentration
# Format: in vivo, BALB/c nude mice
# conditionsUsed: female, BALB/c nude, mouse, tumor tissue; single oral 0.3 mg/kg, 72 h; read-out: Mean tumor tissue concentration
measureName: concentration at 72 h (ng/g)
Numeric only. Scale: ng/g

Ask | Field request: concentration at 72 h | item: CCc1cc2ncc(CN3CCN(c4ccc(C(=O)NC)nc4)CC3)cc2[nH]c1=O [AZD5305, reference compound]
Reply | 31
